Provide the reported z-score of each item.
- MEASUREMENT_NOTES: MM1S myeloma cell viability, profiling panel, resazurin fluorescence, basal, 24 h, PK04 Diversity Set (AID 1174);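 note: MM1S multiple myeloma cell line; test concentration not given here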
- STUDY_CONDITIONS: higher = more signal, called active from +8 up or from −8 down
Numbers only.

Here are 6 compounds together with their reported answers.
In [3]: df
Out[3]:
                                   compound  numeric_readout
0  CCCC[C@@H](O)C1=C(C)C[C@H]2C(=O)N(Cc3ccccc3)C(=O)[C@H]2[C@H]1CO           -0.327
1  CC(C)=CCCC(C)=CCON=C1[C@H]2CCn3c(=O)n(C)c(=O)n3[C@H]2[C@H](O)[C@@H]2O[C@H]12            -2.63
2  O=C(CS)NCCCCCNC(=O)[C@H]1C[C@H]2C(=O)N3CCC[C@H]3C(=O)N2[C@H]1c1cccc(OCCO)c1             0.85
3  Cc1cc2c(nc1C)CCCN2CC(C)ON=C1[C@H]2CCn3c(=O)n(-c4ccccc4)c(=O)n3[C@H]2[C@H](O)[C@@H]2O[C@H]12 (some centres not stated)           -0.222
4  CCCC[C@H]1OB(O)C[C@H]2C1=C(C)C[C@H]1C(=O)N(C)C(=O)[C@H]12           -0.596
5      COC(=O)[C@H]1COC(c2ccc(OCCCO)cc2)=N1            0.107

Okay, now this compound:
Qu. Give its z-score value. Item: "Cc1cc2c(c(=O)o1)[C@H](O)[C@H]1O[C@H]1C2=O"
Ans. -1.19

###

- TARGET_OF_ASSAY: Calmodulin-1 (Homo sapiens) (UniProt P0DP23)
- MEASUREMENT_NOTES: CALM1 binders on microarrays, EGTA buffer, profiling panel, biochemical, small-molecule microarray, Cy5-labelled CALM1 (AID 1111);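 note: labelled calmodulin applied in Tris saline Tween buffer holding calcium plus EGTA and DTT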
- STUDY_CONDITIONS: Cy5-CALM1 binding fluorescence, higher = more signal
MEASURED_QUANTITY: composite z-score

Here are 2 compounds together with their reported answers.
                                   compound  result
0  NCCCCCNC(=O)[C@@H]1C[C@@H]2C(=O)N3CCC[C@H]3C(=O)N2[C@@H]1c1cccc(OCCO)c1    1.38
1  COC(=O)CC1OC1[C@H](C)[C@@H](OC)C(C)C (stereo not given in full)  -0.723

Give composite z-score for each listed item.
1. CCCCCN1CC=CC23O[C@@H]4C=CCOC(=O)[C@@H]4[C@H]2C(=O)N(C(CO)C(C)C)[C@@H]3C1=O (stereo not given in full)
2. Cc1ccc(S[C@]2(C(=O)NCC(F)(F)F)CC(=O)N(Cc3ccccc3Cl)[C@@H]2c2ccc(CO)cc2I)cc1
3. COC(=O)[C@@]1(Cc2ccc(F)cc2)[C@H]2c3cc(C(=O)N(C)C)n(Cc4ccc(OC)c(OC)c4)c3C[C@H]2CN1C(=O)c1ccccc1
4. CC(C)=NOCc1cccc(-c2cc(-c3ccccc3)no2)c1
5. CCOC(=O)CCN1C(=O)[C@H]2[C@H]3[C@H](O)[C@H](O)CC(=O)[C@H]3CC[C@H]2C1=O
6. O=C1[C@H]2[C@H]3[C@H](O)[C@H](O)CC(=NO[C@@H]4O[C@H](CO)[C@@H](O)[C@H](O)[C@H]4O)[C@H]3CC[C@H]2C(=O)N1Cc1ccccc1
7. [N-]=[N+]=NCc1ccccc1C[C@]1(C(=O)NCc2ccccc2)N=C(c2ccc(OCCCO)cc2)O[C@H]1c1ccccc1N=[N+]=[N-]
8. O=C1[C@H]2[C@H]3[C@H](O)[C@H](O)CC(=NOCc4ccccc4)[C@@H]3CC[C@H]2C(=O)N1Cc1ccccc1

Ans.
1. -0.385
2. -0.391
3. 0.482
4. 0.0463
5. 0.0492
6. -0.058
7. 1.35
8. 0.675

Give composite z-score for each listed item.
1. CC(C)CON=C1C[C@@H](O)[C@@H](O)[C@@H]2[C@@H]3C(=O)N([C@@H](C)c4ccccc4)C(=O)[C@@H]3CC[C@H]12
2. CCc1cccc(NC(=O)O[C@H]2[C@H](OC(=O)Nc3ccc4c(c3)OCO4)[C@@H](OC(=O)Nc3ccc4c(c3)OCO4)[C@@H](OC)O[C@@H]2CO)c1
3. C[N+](C)(C)CCCCCCNC(=O)[C@@H]1C[C@@H]2C(=O)N3CCC[C@H]3C(=O)N2[C@@H]1c1cccc(OCCO)c1
4. COC(=O)CC=C[C@@H](C)[C@H](OC)c1ccccc1Br

Ans.
1: 0.336; 2: 0.779; 3: 0.233; 4: -0.0557

Qu. Test system Calmodulin-1 (Homo sapiens) (UniProt P0DP23); read-out composite z-score; what value for "O=C(CS)NCCCCCNC(=O)[C@H]1C[C@H]2C(=O)N3CCC[C@H]3C(=O)N2[C@H]1c1cccc(OCCO)c1" ?
Ans. -0.8

###

- MEASUREMENT_NOTES: yeast growth modulation, basal conditions, primary screen, YJM789 clinical isolate, OD600, 24 h (AID 1089);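 note: growth of clinical yeast isolate S. cerevisiae YJM 789 seeded 1000 cells per well; test concentration not given here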
- STUDY_CONDITIONS: S. cerevisiae YJM789 growth, higher = more signal, called active from +8 up or from −8 down
Provide the reported z-score of each item.
Give bare numbers.

In [3]: df
Out[3]:
                                   compound  measured_quantity  numeric_readout
0  C[C@@H](c1ccccc1)N1C(=O)[C@H]2[C@H]3[C@H](O)[C@H](O)CC(=NOC[C@@H](O)COCc4ccco4)[C@@H]3CC[C@H]2C1=O            z-score            0.539

Give z-score for each listed item.
1. COc1cccc([C@H]2Oc3ccc(OC)cc3C(=NO[C@H](C)c3cn([C@@H]4COC[C@H]4O)nn3)[C@@H]2O)c1
2. CO[C@@H]1COC(=O)CC=C[C@@H](C)COC(=O)[C@H](COCc2ccccc2)NC(=O)CC=C[C@H]1C
3. CC(C)CON=C1C[C@@H](O)[C@@H](O)[C@@H]2[C@@H]3C(=O)N(Cc4ccccc4)C(=O)[C@@H]3CC[C@@H]12

Ans.
[0.0141, 0.847, -0.443]

Give z-score for each listed item.
1. O=C1NC(=O)C2C1C=CC(C(O)Cc1ccccc1)N2Nc1ccccn1 (stereo not given)
2. COC(=O)[C@H](C)NC(=O)CCC1CC(OC(=O)NCc2cccc3ccccc23)CC2(CCCC(COC(=O)NCC3CCCCC3)O2)O1 (stereo not given in full)
3. CCOC(=O)NN=C1C[C@@H](O)[C@@H](O)[C@@H]2[C@@H]3C(=O)N(C4CCCCC4)C(=O)[C@@H]3CC[C@H]12
4. COC(=O)[C@@]1(Cc2ccc(OC)cc2)[C@H]2c3cc(C(=O)N4CCCC4)n(Cc4cc(F)c(F)c(F)c4)c3C[C@H]2CN1C(=O)c1ccccc1

Ans.
1: -0.47; 2: -0.0166; 3: 0.351; 4: 0.68

Give z-score for each listed item.
1. C=CC[C@@H]1C=C[C@H](ON=C[C@@H](OC)[C@H](C)C=CCC(=O)OC)[C@@H](CO)O1
2. CC(C)NC(=O)[C@@]1(C)c2ccccc2C(=O)N(Cc2cc(F)cc(C(F)(F)F)c2)[C@H]1c1ccc(CO)cc1

Ans.
[0.78, -0.0639]

###

- System: Fibrinogen (Alexa647-labelled)
- MEASUREMENT_NOTES: fibrinogen binders on compound microarrays, profiling panel, artefact control for SMM control-protein annotation, biochemical, small-molecule microarray, 635/667 nm fluorescence (AID 1131);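 note: z-score merges 667 nm fluorescence with per-spot signal-to-noise over triplicate slides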
- STUDY_CONDITIONS: fibrinogen-A647 binding fluorescence, higher = more signal
Classes (composite z-score): lower segment = under -0.3, middle segment = from -0.3 up to 0.7, upper segment = 0.7 and over

>>> print(df.to_string())
                                   molecule                 target_of_assay  classification
0  CCOC(=O)C1=CCC(c2cc3ccccc3[nH]2)NC1 (configuration not stated)  Fibrinogen (Alexa647-labelled)  middle segment
1  O=C(CS)NCCCCCNC(=O)[C@H]1C[C@H]2C(=O)N3CCC[C@H]3C(=O)N2[C@H]1c1cccc(OCCO)c1  Fibrinogen (Alexa647-labelled)  middle segment
2  COC(=O)[C@@]1(Cc2ccc(F)cc2)[C@H]2c3cc(C(=O)N(C)C)n(Cc4ccc(OC)c(OC)c4)c3C[C@H]2CN1C(=O)c1ccccc1  Fibrinogen (Alexa647-labelled)  middle segment

Qu. Where would "CC(C)CN1CCc2nc(-c3ccccc3)c3c(c2CC1)CO[C@@H](C)C3" land among the classes by reported composite z-score?
Ans. middle segment

Qu. Where would CCOC(=O)[C@H](CC(C)C)NC(=O)CCC1CC(OC(=O)NCc2cccc3ccccc23)CC2(CCCC(COC(=O)NCCN3CCOCC3)O2)O1 (some centres not stated) land among the classes by reported composite z-score?
Ans. middle segment

Qu. Where would CC1(C)OCC(C(O)C2=CCCCC2=O)CO1 (configuration not stated) land among the classes by reported composite z-score?
Ans. upper segment

Qu. Where would "C=CC[C@@H]1C=C[C@H](ON=C(C)CCN2CCc3nc(CC)c(CC)cc3C2)[C@@H](CO)O1" land among the classes by reported composite z-score?
Ans. lower segment

Qu. Where would "C#CCCCON=C1C[C@@H](O)[C@@H](O)[C@@H]2[C@@H]3C(=O)N(CCC(=O)OCC)C(=O)[C@@H]3CC[C@@H]12" land among the classes by reported composite z-score?
Ans. middle segment

Qu. Where would "C[C@H]1Cc2c(-c3ccccc3)nc3c(c2CO1)CN(CCOc1ccccc1)CC3" land among the classes by reported composite z-score?
Ans. upper segment

Qu. Where would "CCCCC(=C=CC[C@H](O)c1ccccc1OCCO)C[C@H](O)COCc1ccccc1" land among the classes by reported composite z-score?
Ans. middle segment

Qu. Where would "COC(=O)C1=C(C)N(Cc2ccccc2)[C@]23O[C@](C(=O)OC)(C(=O)N2[C@@H]1c1ccccc1)[C@H]1CCOC(=O)[C@H]13" land among the classes by reported composite z-score?
Ans. middle segment

Qu. Where would "CO[C@@H]1COC(=O)[C@H](C)NC(=O)[C@@H](C)COC(=O)CCC[C@H]1C" land among the classes by reported composite z-score?
Ans. lower segment

Reference source: PubChem BioAssay
